# TEST_TARGET: Pdr3 (UniProt P33200)
# Sequence: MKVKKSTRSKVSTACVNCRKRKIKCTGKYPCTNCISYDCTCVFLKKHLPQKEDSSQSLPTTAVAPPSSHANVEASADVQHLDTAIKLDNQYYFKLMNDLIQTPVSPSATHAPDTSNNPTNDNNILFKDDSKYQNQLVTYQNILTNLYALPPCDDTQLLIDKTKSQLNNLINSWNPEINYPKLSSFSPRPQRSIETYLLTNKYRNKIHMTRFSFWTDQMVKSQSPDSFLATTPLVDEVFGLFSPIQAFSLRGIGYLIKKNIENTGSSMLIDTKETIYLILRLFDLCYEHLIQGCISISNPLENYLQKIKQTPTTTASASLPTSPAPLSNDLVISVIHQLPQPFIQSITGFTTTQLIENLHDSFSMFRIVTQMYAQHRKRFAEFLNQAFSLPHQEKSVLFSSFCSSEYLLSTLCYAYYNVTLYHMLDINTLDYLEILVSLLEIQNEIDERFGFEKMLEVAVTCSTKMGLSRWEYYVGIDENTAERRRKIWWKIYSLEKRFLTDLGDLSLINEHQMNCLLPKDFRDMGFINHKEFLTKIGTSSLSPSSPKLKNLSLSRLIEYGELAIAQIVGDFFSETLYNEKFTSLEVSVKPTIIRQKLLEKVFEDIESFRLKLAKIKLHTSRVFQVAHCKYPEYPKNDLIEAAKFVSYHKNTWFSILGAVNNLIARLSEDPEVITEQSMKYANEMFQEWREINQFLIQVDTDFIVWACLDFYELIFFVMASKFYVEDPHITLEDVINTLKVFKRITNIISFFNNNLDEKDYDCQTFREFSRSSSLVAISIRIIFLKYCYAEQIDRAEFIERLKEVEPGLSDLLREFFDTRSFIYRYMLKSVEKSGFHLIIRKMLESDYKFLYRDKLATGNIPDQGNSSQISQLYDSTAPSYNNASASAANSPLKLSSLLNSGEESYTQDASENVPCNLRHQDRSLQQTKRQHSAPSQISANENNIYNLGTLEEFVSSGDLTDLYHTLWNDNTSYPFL
# ASSAY_COMMENT: PBM E-score (8-mer binding enrichment) (E-score (-0.5 to 0.5)); higher = stronger / more preferred TF binding
# ASSAY_SETUP: protein concentration: 200 nM; construct: GST-full length
Over roughly 33,000 sequences, “E-score (-0.5 to 0.5)” has its median near -0.035; the highest 2% begin near 0.35. Only a selection was taken, and the highest values are over-represented in it overall.
Class assignment keyed on PBM E-score, ranges band 1 = under 0.08, band 2 = from 0.08 up to 0.3, band 3 = 0.3 and over

Band for the recorded PBM E-score of "GACACGGA" ? band 3

Band for the recorded PBM E-score of "ATATTCCC" ? band 2

Band for the recorded PBM E-score of "CTGCCCCA" ? band 1

Band for the recorded PBM E-score of "AACACGGC" ? band 2

Band for the recorded PBM E-score of "CCATTCCC" ? band 2

Band for the recorded PBM E-score of "ATCGGCAT" ? band 2

Band for the recorded PBM E-score of "ACTTGCTG" ? band 1

Band for the recorded PBM E-score of "GTCCCAAA" ? band 1

Band for the recorded PBM E-score of "CTCGGAAC" ? band 3

Band for the recorded PBM E-score of "CTCGGACA" ? band 2

Band for the recorded PBM E-score of "GACACGGC" ? band 2

Band for the recorded PBM E-score of "ATCTCAGG" ? band 1

Band for the recorded PBM E-score of "CTCAGACC" ? band 1

Band for the recorded PBM E-score of "ACATTCCG" ? band 3
